Give pIC50 for every item shown.
- Test system: Septoria tritici (Qo-inhibitor sensitive, wild-type)
- procedure-text: Microtiter test, Septoria tritici Qo-inhibitor sensitive wild-type (Use Example 1)
- Assay type: cell-based
- condition-notes: turbidity at 620 nm, read-out: Sensitive Septoria tritici isolate (wild type) (S-IC50)
To interpret pIC50, take it as minus log10 of a concentration measured in moles per litre.

Ask: For the compound Cc1cc(-c2cnoc2)c(C)cc1OCc1ccccc1-n1nnn(C)c1=O , give its measured pIC50 value.
Reply: 5.72

Ask: For the compound CO/C=C(/C(=O)OC)c1ccccc1COc1cccc(C(F)(F)F)n1 [Picoxystrobin, reference compound] , give its measured pIC50 value.
Reply: 5.64

Ask: For the compound CNC(=O)/C(=N/OC)c1ccccc1CO/N=C(C)/C(=N/OC)C(/C)=N/OC [Orysastrobin, reference compound] , give its measured pIC50 value.
Reply: 4.57

Ask: For the compound CNC(=O)C(=NOC)C(C)=CCOc1ncn(-c2ccc(Cl)cc2Cl)n1 , give its measured pIC50 value.
Reply: 5.03

Ask: For the compound Cc1ccc(-n2cc(C)c(OCc3ccccc3-n3nnn(C)c3=O)n2)c(C)c1 , give its measured pIC50 value.
Reply: 5.42

Ask: For the compound CO/C=C(/C(=O)OC)c1ccccc1CO/N=C(C)/C=C/c1ccc(Cl)cc1 [Enestroburin, reference compound] , give its measured pIC50 value.
Reply: 5.35

Ask: For the compound CCC(=NOC)c1ccc(OCc2ccccc2-n2nnn(CC)c2=O)c(C)c1 , give its measured pIC50 value.
Reply: 4.68

Ask: For the compound CO/C=C(/C(=O)OC)c1ccccc1Oc1cc(Oc2ccccc2C#N)ncn1 [Azoxystrobin, reference compound] , give its measured pIC50 value.
Reply: 5.46

Ask: For the compound Cn1nnn(-c2ccccc2COc2nn(-c3ccc(Cl)cc3)cc2Cl)c1=O , give its measured pIC50 value.
Reply: 5.39

Ask: For the compound CC=CCON=C(C)c1cc(C)c(OCC=C(C)C(=NOC)C(=O)NC)cc1C , give its measured pIC50 value.
Reply: 6.00

Ask: For the compound CCON=C(c1ccc(OCc2ccccc2-n2nnn(C)c2=O)c(C)c1)C1CC1 , give its measured pIC50 value.
Reply: 5.22

Ask: For the compound CC(Cc1ccc(Cl)cc1)=NOCc1ccccc1-n1nnn(C)c1=O , give its measured pIC50 value.
Reply: 5.49

Ask: For the compound CCON=C(CC)c1ccc(OCc2ccccc2-n2nnn(C)c2=O)c(C)c1 , give its measured pIC50 value.
Reply: 5.22

Ask: For the compound CCON=C(C)c1ccc(OCC=C(C)C(=NOC)C(=O)OC)c(C)c1 , give its measured pIC50 value.
Reply: 5.89

Ask: For the compound CCc1ccc(-n2cnc(OCC=C(C)C(=NOC)C(=O)OC)n2)cc1 , give its measured pIC50 value.
Reply: 6.28

Ask: For the compound CCC/C(=N\OC)c1ccc(OCc2ccccc2-n2nnn(C)c2=O)c(C)c1 , give its measured pIC50 value.
Reply: 4.89

Ask: For the compound CCC(=CCOc1ccn(-c2ccc(Cl)cc2)n1)C(=NOC)C(=O)NC , give its measured pIC50 value.
Reply: 5.82

Ask: For the compound C/C(=N\OC/C=C\Cl)c1cc(C)c(OCc2ccccc2-n2nnn(C)c2=O)cc1C , give its measured pIC50 value.
Reply: 5.47

Ask: For the compound C=CCON=C(C)c1cc(C)c(OCC=C(C)C(=NOC)C(=O)NC)cc1C , give its measured pIC50 value.
Reply: 5.96

Ask: For the compound Cc1ccc(-n2cc(C)c(OCc3ccccc3-n3nnn(C)c3=O)n2)cc1 , give its measured pIC50 value.
Reply: 5.64

Ask: For the compound C/C=C/CO/N=C(\C)c1cc(C)c(OCc2ccccc2-n2nnn(C)c2=O)cc1C , give its measured pIC50 value.
Reply: 5.47

Ask: For the compound C=C(Cl)CON=C(C)c1cc(C)c(OCC=C(C)C(=NOC)C(=O)NC)cc1C , give its measured pIC50 value.
Reply: 6.30

Ask: For the compound C=CCO/N=C(\C)c1cc(C)c(OCc2ccccc2-n2nnn(C)c2=O)cc1C , give its measured pIC50 value.
Reply: 5.77

Ask: For the compound CCON=C(C)c1ccc(OCc2ccccc2-n2nnn(C)c2=O)c(C)c1 , give its measured pIC50 value.
Reply: 5.62

Ask: For the compound CON=C(C(=O)OC)C(C)=CCOc1ncn(-c2ccc(Cl)cc2Cl)n1 , give its measured pIC50 value.
Reply: 6.57

Ask: For the compound CCC/C(=N\OC)c1cc(C)c(OCc2ccccc2-n2nnn(C)c2=O)cc1C , give its measured pIC50 value.
Reply: 5.62

Ask: For the compound C/C(=N\OC/C=C/Cl)c1cc(C)c(OCc2ccccc2-n2nnn(C)c2=O)cc1C , give its measured pIC50 value.
Reply: 5.57

Ask: For the compound C=CCON=C(C)c1ccc(OCC=C(C)C(=NOC)C(=O)OC)c(C)c1 , give its measured pIC50 value.
Reply: 5.66

Ask: For the compound Cc1cc(-n2cccn2)ccc1OCc1ccccc1-n1nnn(C)c1=O , give its measured pIC50 value.
Reply: 5.85

Ask: For the compound C=CCON=C(C)c1ccc(OCC=C(C)C(=NOC)C(=O)NC)c(C)c1 , give its measured pIC50 value.
Reply: 5.80

Ask: For the compound CON=C(C(=O)OC)C(C)=CCOc1ncn(-c2cc(C)ccc2C)n1 , give its measured pIC50 value.
Reply: 5.72

Ask: For the compound CNC(=O)C(=NOC)C(C)=CCOc1ncn(-c2ccc(Cl)cc2)n1 , give its measured pIC50 value.
Reply: 5.46

The measured values listed here are drawn from patent US10080365B2.
